# system.tested: human Mac-1 (integrin αMβ2, CD11b/CD18) (human, UniProt P11215 17-1152; P05107 23-769)
# assay.overview: flow cytometry, HEK293/Mac-1 cells (clone 1-4), PBS/MnCl2 (Mn2+)
reported.property: Mn^2+ MFI

INSERT INTO results (binder, reported_property, result_value) VALUES
  ('anti-Mac-1 antibody clone 27E12 (antibody, human IgG4, V domains shown) VH: QVQLQQSGTVLARPGASVKMSCKASGYTFTSYWMHWVKQRPGQGLEWIGAIYPGNSDTSYNQKFKGKAKLTAVTSASTAYMELSSLTNEDSAVYYCTRGGGSYEFAYWGQGTTVTVSS VL: DIELTQSPAIMSASPGEKVTMTCSVSSSVSYMYWYQQKPGSSPRLLIYDTSNLASGVPARFSGSGSGTSYSLTISSMEAEDAATYYCQQWSSNPFTFGSGTKLEIK', 'Mn^2+ MFI', '50800 MFI'),
  ('anti-Mac-1 antibody clone DF4-22 (antibody, human IgG4, V domains shown) VH: EVQLVESGGGLVQPGGSLRLSCAASGFTFTDYNVHWVRQAPGKGLEWVSGINSSGSETNYADSVKGRFTISRDNSKNTLYLQMNSLRAEDTAVYYCARDSVFKTVGGYDAVMDYWGQGTLVTVSS VL: DIQMTQSPSSLSASVGDRVTITCRASQSIYNYLAWYQQKPGKAPKLLIYGTSTLQSGVPSRFSGSGSGTDFTLTISSLQPEDFATYYCMQSYSSPTTFGQGTKVEIK', 'Mn^2+ MFI', '35200 MFI'),
  ('anti-Mac-1 antibody clone 24H01 (antibody, human IgG4, V domains shown) VH: EVQLVESGGGLVQPGGSLRLSCAASGFTFNNYYMSWVRQAPGKGLEWVSIIYYDGSEADYADSVKGRFTISRDNSKNTLYLQMNSLRAEDTAVYYCARNKDIYSVYGMDYWGQGTLVTVSS VL: DIQMTQSPSSLSASVGDRVTITCRASQSISNYLAWYQQKPGKAPKLLIYATSNLQSGVPSRFSGSGSGTDFTLTISSLQPEDFATYYCQQANNTPPTFGQGTKVEIK', 'Mn^2+ MFI', '23900 MFI');
